Listed here: items and their measured Kd.
study_target: T1, Biotinylated human VEGF-165 (Acro Biosystem) (human, UniProt P15692 207-395, biotinylated (site not stated))
T1 construct: Bought protein; also called human VEGFA
T1 sequence (P15692 other isoform, or with tags, fused parts or gaps): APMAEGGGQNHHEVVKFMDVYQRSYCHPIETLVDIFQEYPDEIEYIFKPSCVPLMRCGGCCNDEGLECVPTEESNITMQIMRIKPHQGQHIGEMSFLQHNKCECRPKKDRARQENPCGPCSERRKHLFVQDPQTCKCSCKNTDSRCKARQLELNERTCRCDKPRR
procedure_details: BLI, biotinylated antigen on streptavidin tips, 1:1 global fit
# unit: nM | format: bare number

Consider the worked cases shown below.
21A8.1 (VHH, Autonomous humanised VH domain (DotBody), from the 16C2.1-based library with heat challenge; E. coli, ATG codon 5' (possible initiator Met), 3' hexahistidine tag; also called DotBody 21A8.1) VHH: EVQLVESGGGLVQPGGSLRLSCAISGFSVDATDIDWVRQAPGKGLEWVARIFSPSGFTDYADSVKGRFTISADTSKNTVYLQMNSLRAEDTAVYYCDRPEFYAYNIFHDPRTVPAGNYRGQGTLVTVSS	20
21D9.1 (VHH, Autonomous humanised VH domain (DotBody), from the 16C2.1-based library with heat challenge; E. coli, ATG codon 5' (possible initiator Met), 3' hexahistidine tag; also called DotBody 21D9.1) VHH: EVQLVESGGGLVQPGGSLRLSCAISGFSLGATDIDWVRQAPGKGLEWVARIFSPSDFTDYADSVKGRFTISADTSKNTVYLQMNSLRAEDTAVYYCSRPDTYAYNIFPHTASHGAFNYRGQGTLVTVSS	20.5
16A2.1 (VHH, E. coli, ATG codon 5' (possible initiator Met), 3' hexahistidine tag; also called anti-VEGF DotBody 16A2.1; clone 16A2.1) VHH: EVQLVESGGGLVQPGGSLRLSCAISGFALAETDIDWVRQAPGKGLEWVARIFSSGGNTDYADSVKGRFTISADTSKNTVYLQMNSLRAEDTAVYYCGRSDSIAYNVILPNSTYTARDYRGQGTLVTVSS	2.5
21A1.1 (VHH, Autonomous humanised VH domain (DotBody), from the 16C2.1-based library with heat challenge; E. coli, ATG codon 5' (possible initiator Met), 3' hexahistidine tag; also called DotBody 21A1.1) VHH: EVQLVESGGGLVQPGGSLRLSCAISGFALATTDIDWVRQAPGKGLEWVARIFNPSDFTDYADSVKGRFTISADTSKNTVYLQMNSLRAEDTAVYYCGRPAVYGYNIFLDSPTYDASQYRGQGTLVTVSS	11.3
13A6 (VHH, Autonomous humanised VH domain (DotBody); also called anti-VEGF DotBody 13A6; clone 13A6) VHH: EVQLVESGGGLVQPGGSLRLSCAISGFSLAATDIDWVRQAPGKGLEWVARIFPSAGSTDYADSVKGRFTISADTSKNTVYLQMNSLRAEDTAVYYCGRSDSYSYNVFLHNPTYTALDYRGQGTLVTVSS	38.9

Can you share its Kd? I mean this binder: 16A6.1 (VHH, E. coli, ATG codon 5' (possible initiator Met), 3' hexahistidine tag; also called clone 16A6.1) VHH: EVQLVESGGGLVQPGGSLRLSCAISGFSLAATDIDWVRQAPGKGLEWVARIFPFSGSTDYTDSVKGRFTISADTSKNTVYLQMNSLRAEDTAVYYCGRSDSYSYNVFLHDPAYTALDYRGQGTLVTVSS 14.7

Which measured Kd value corresponds to 23D5.1 (VHH, Autonomous humanised VH domain (DotBody), from the 16C2.1-based library without heat challenge; E. coli, ATG codon 5' (possible initiator Met), 3' hexahistidine tag; also called DotBody 23D5.1) VHH: EVQLVESGGGLVQPGGSLRLSCAISGFDLATTDIDWVRQAPGKGLEWVARIFRPSDFTDYADSVKGRFTISADTSKNTVYLQMNSLRAEDTAVYYCVRPDSYAYNILFVTRTFNALHYRGQGTLVTVSS ? 2.8

Entry 21E6.1 (VHH, Autonomous humanised VH domain (DotBody), from the 16C2.1-based library with heat challenge; E. coli, ATG codon 5' (possible initiator Met), 3' hexahistidine tag; also called DotBody 21E6.1) VHH: EVQLVESGGGLVQPGGSLRLSCAISGFTLAATDIDWVRQAPGKGLEWVARIFTPTGFSDYADSVKGRFTISADTSKNTVYLQMNSLRAEDTAVYYCGIPELYAYNIFMDIPAYNDVYYRGQGTLVTVSS : reported Kd = ? 6.3

Entry under review: 20A2.1 (VHH, Autonomous humanised VH domain (DotBody), from the 16A2.1-based library with heat challenge; E. coli, ATG codon 5' (possible initiator Met), 3' hexahistidine tag; also called DotBody 20A2.1) VHH: EVQLVESGGGLVQPGGSLRLSCAISGFPLADTDIDWVRQAPGKGLEWVARIFSSYGSTDYADSVKGRFTISADTSKNTVYLQMNSLRAEDTAVYYCGRSDSIAYNIILPASTYSSRDYRGQGTLVTVSS . Reported Kd? 5.54

# query: Kd of entry 20A3.1 (VHH, Autonomous humanised VH domain (DotBody), from the 16A2.1-based library with heat challenge; E. coli, ATG codon 5' (possible initiator Met), 3' hexahistidine tag; also called DotBody 20A3.1) VHH: EVQLVESGGGLVQPGGSLRLSCAISGFSLADTDIDWVRQAPGKGLEWVARIFSSSGSTYYADSVKGRFTISADTSKNTVYLQMNSLRAEDTAVYYCDRADSVGYNVIFPGSTYSRSGYRGQGTLVTVSS 2.78
